B1: PSD2 (parent)
chain: PLMGETQERERVLTHFSRRYCQCN

Variants of: B1
Procedure text: protein stability index of a GFP-peptide fusion (GPS, HEK-293T) (PSI 1-6); higher = more stable;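 further: lentivirally expressed fusions sorted by FACS into six bins by GFP to DsRed ratio, PSI derived from sequencing read proportions per bin multiplied by bin number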
Condition context: c terminus: a fixed tail appended
Catalogue of protein stability index values
Provide a numeric answer; units are not to be included.

>>> print(df.to_string())
           residue_sequence   val
0  PLMGETQERERVLTHFSRRYFQCN  3.27

Now for another entry.
Prompt: Supply protein stability index value. Item: "PLMGETQERERVLTHFSRRYCQCS"
Completion: 3.38

Every entry's value here was drawn from the supplement of paper PMC10567573.
